Quick reference for protein stability index among some variants
B1: ZNF263 (parent)
chain: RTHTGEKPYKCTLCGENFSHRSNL

Variants of: B1
assay-summary: protein stability index of a GFP-peptide fusion (GPS, HEK-293T) (PSI 1-6); higher = more stable;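 further: lentivirally expressed fusions sorted by FACS into six bins by GFP to DsRed ratio, PSI derived from sequencing read proportions per bin multiplied by bin number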
study-conditions: c terminus: a fixed tail appended
measured-attribute: protein stability index

[[record]]
sequence_record = "ETHTGEKPYKCTLCGENFSHRSNL"
measured_attribute = "protein stability index"
test_value = 2.13

[[record]]
sequence_record = "RTFTGEKPYKCTLCGENFSHRSNL"
measured_attribute = "protein stability index"
test_value = 2.15

[[record]]
sequence_record = "RTHTGEKPYKCTLCGVNFSHRSNL"
measured_attribute = "protein stability index"
test_value = 2.17

[[record]]
sequence_record = "RTHTGEKPYKKTLCGENFSHRSNL"
measured_attribute = "protein stability index"
test_value = 2.92

[[record]]
sequence_record = "RTHTGEKPYMCTLCGENFSHRSNL"
measured_attribute = "protein stability index"
test_value = 1.97

[[record]]
sequence_record = "RTHTGEKPYKCTLCGENFSHRSYL"
measured_attribute = "protein stability index"
test_value = 1.96

[[record]]
sequence_record = "RTHTGEKQYKCTLCGENFSHRSNL"
measured_attribute = "protein stability index"
test_value = 2.09

[[record]]
sequence_record = "RTHTIEKPYKCTLCGENFSHRSNL"
measured_attribute = "protein stability index"
test_value = 2.06

[[record]]
sequence_record = "RTHTGEKPYKCTLCGNNFSHRSNL"
measured_attribute = "protein stability index"
test_value = 1.77

[[record]]
sequence_record = "RTHTGEKPYKCTLCGENFSHRSEL"
measured_attribute = "protein stability index"
test_value = 2.31

[[record]]
sequence_record = "RTHTGNKPYKCTLCGENFSHRSNL"
measured_attribute = "protein stability index"
test_value = 1.67

[[record]]
sequence_record = "RTHTGEKPYKCTLCCENFSHRSNL"
measured_attribute = "protein stability index"
test_value = 1.59

[[record]]
sequence_record = "RTHMGEKPYKCTLCGENFSHRSNL"
measured_attribute = "protein stability index"
test_value = 2.1


src = the supplement of paper PMC10567573
